# study_target: ALK L1196M (Homo sapiens (Human), UniProt Q9UM73, L1196M)
# Sequence (Q9UM73 19-1620 L1196M): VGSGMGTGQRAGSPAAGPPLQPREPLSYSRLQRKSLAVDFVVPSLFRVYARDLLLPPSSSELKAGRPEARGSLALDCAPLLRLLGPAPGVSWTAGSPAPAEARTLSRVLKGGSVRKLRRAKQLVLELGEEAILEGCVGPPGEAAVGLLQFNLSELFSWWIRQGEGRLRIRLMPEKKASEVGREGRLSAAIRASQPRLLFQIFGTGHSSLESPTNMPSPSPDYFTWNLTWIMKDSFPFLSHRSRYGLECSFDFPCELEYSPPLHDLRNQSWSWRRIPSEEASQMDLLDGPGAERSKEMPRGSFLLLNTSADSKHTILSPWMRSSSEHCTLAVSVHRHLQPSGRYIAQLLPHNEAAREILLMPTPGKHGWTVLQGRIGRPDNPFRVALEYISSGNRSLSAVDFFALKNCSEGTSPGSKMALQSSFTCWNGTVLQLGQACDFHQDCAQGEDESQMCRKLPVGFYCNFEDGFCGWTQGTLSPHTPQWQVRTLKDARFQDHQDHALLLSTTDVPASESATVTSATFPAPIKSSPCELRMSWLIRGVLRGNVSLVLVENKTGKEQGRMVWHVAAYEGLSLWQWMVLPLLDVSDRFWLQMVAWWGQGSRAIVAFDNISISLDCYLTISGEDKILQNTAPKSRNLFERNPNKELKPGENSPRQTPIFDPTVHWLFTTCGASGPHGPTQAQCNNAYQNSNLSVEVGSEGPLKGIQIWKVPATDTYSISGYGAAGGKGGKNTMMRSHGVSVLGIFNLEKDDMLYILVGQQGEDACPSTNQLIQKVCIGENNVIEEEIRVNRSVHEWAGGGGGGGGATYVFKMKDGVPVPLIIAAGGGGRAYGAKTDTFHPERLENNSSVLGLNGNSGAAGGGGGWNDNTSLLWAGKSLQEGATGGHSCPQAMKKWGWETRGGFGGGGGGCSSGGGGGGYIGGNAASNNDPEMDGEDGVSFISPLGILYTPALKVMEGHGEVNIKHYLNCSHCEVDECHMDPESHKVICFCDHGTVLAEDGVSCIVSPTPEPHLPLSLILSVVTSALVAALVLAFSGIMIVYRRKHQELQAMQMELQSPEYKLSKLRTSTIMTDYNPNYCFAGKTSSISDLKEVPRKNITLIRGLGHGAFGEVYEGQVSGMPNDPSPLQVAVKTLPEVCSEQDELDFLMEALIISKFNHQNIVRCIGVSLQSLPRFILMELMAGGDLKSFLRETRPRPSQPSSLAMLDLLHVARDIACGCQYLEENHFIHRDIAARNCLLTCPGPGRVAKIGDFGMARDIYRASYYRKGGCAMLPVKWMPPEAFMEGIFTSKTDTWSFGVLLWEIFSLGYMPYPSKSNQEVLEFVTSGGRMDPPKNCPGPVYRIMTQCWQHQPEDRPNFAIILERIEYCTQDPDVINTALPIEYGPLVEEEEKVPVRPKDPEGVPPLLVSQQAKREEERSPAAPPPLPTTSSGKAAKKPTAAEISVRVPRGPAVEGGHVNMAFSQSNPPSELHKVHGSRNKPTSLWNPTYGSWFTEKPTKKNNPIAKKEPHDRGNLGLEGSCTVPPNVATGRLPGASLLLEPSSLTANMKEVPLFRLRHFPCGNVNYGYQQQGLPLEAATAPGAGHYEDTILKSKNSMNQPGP
# test: Inhibition of ALK L1196M kinase activity (Caliper mobility shift)
# Assay type: biochemical
What IC50 was measured for each of the following?

Exam item: Param item = COc1cc(CN2CCC(N(C)C)CC2)ccc1Nc1ncc(Cl)c(Nc2cccnc2S(=O)(=O)C(C)C)n1 ; retrieve measured IC50.
Marked response: 1 to 10 nM

Exam item: Which IC50 value belongs to COc1cc(CN2CCC(N(C)C)CC2)ccc1Nc1ncc(Cl)c(Nc2ccccc2S(=O)(=O)C(C)C)n1 [Compound I-110] ?
Marked response: 1 to 10 nM

Exam item: Need IC50 of COc1cc(N2CCN(C(C)C)CC2)ccc1Nc1ncc(Cl)c(Nc2cccnc2S(=O)(=O)C(C)C)n1 , thanks.
Marked response: 1 to 10 nM

Exam item: Entry COc1cc(N2CCC(N3CCN(C)CC3)CC2)ccc1Nc1ncc(Cl)c(Nc2ccsc2S(=O)(=O)C(C)C)n1 has what IC50?
Marked response: 1 to 10 nM

Exam item: // query IC50 value for entry COc1cc(C2=CCN(C(C)C)CC2)c(C)cc1Nc1ncc(Cl)c(Nc2cccnc2S(=O)(=O)C(C)C)n1
Marked response: 1 to 10 nM

Exam item: Entry under review: COc1cc(N2CCC(N3CC(C)OC(C)C3)CC2)ccc1Nc1ncc(Cl)c(Nc2cccnc2S(=O)(=O)C(C)C)n1 (centres unmarked) . Reported IC50?
Marked response: 1 to 10 nM

Exam item: # IC50 lookup, item COc1cc(CN2CCC(N(C)C)CC2)ccc1Nc1ncc(Cl)c(Nc2ccccc2S(=O)(=O)C(C)C)n1 [Compound I-109]
Marked response: 1 to 10 nM

Exam item: Find the recorded IC50 belonging to CC(C)Oc1cc(N2CCC(N(C)C)CC2)ccc1Nc1ncc(OC(F)F)c(Nc2ccccc2S(=O)(=O)C(C)C)n1 and report it.
Marked response: < 1 nM

Exam item: So what does the record say about IC50 for COc1cc(N2CCN(C(C)C)CC2)c(C)cc1Nc1ncc(OC(F)F)c(Nc2ccccc2S(=O)(=O)C(C)C)n1 ?
Marked response: < 1 nM

Exam item: What IC50 value was documented for this molecule, COc1cc(N2CCN(C)CC2)ccc1Nc1ncc(Cl)c(Nc2cccnc2S(=O)(=O)C(C)C)n1 ?
Marked response: 1 to 10 nM

Exam item: Data request, read-out IC50, for COc1cc(N2CCN(C(C)C)CC2)c(C)cc1Nc1ncc(Cl)c(Nc2cccnc2S(=O)(=O)C(C)C)n1
Marked response: 1 to 10 nM

Exam item: Requested field: IC50. Item: CC(C)S(=O)(=O)c1ncccc1Nc1nc(Nc2ccc(N3CCC(N(C)C)CC3)cc2OC(F)F)ncc1Cl
Marked response: 1 to 10 nM

Exam item: Reported IC50 for COc1cc(N2CCC(N(C)C)CC2)c(C)cc1Nc1ncc(OC(F)F)c(Nc2ccccc2S(=O)(=O)C(C)C)n1 : what is it?
Marked response: < 1 nM

Exam item: Consider the molecule shown here: COc1cc(C2=CCN(C(C)C)CC2)ccc1Nc1ncc(Cl)c(Nc2ccsc2S(=O)(=O)C(C)C)n1 What is its recorded IC50?
Marked response: < 1 nM
